Entry source: ChEMBL document CHEMBL5058577

- Tested on: U2OS
- assayMethodText: Multiplex assay against U2OS
- Type: toxicity, cell-based
- experimentalContext: human, 48 h, 10 µM, compound concentration 10 uM, replicate 2
Give True when the value for Population Mitotic Cells (%) is at least 4%. Give False when it is less.

Answered cases to consult:
>>> classlabel("CN1CCN(c2cc(-c3ccccc3)nc(N)n2)CC1")
"True"
>>> classlabel("C[C@H](N)COC(=O)[C@@H](CCCCN)NC(=O)Cc1c(-c2ccc3ccccc3c2)[nH]c2c1ccc1ccccc12")
"True"
>>> classlabel("CC[C@@H](C)Nc1nc(C)nc2c(-c3ccc(OC)nc3C)c(C)nn12 [PEXACERFONT]")
"False"
>>> classlabel("CN[C@@H](C)C(=O)N[C@H](C(=O)N1CCC[C@H]1C(=O)Nc1snnc1-c1ccccc1)C1CCCCC1 [GDC-0152]")
"False"
>>> classlabel("Cc1cnc(-c2cc(N3CCN(C(=O)CCS(C)(=O)=O)CC3)ncc2Cl)c(C)c1")
"False"

Now look at this one.
Please indicate if the recorded Population Mitotic Cells (%) for CCc1cc2cc(NS(=O)(=O)c3ccc(C#N)cc3)ccc2n(CC)c1=O meets or exceeds 4%.
False
